Conditions: 303.15 K; 101.33 kPa; Liquid; Vibrating tube method
EXPERIMENTAL_ENDPOINT: mass density (kg/m3)
A number alone suffices; assume kg/m3.

CCn1cc[n+](C)c1.O=C([O-])[C@@H]1CCCN1 [1-ethyl-3-methyl-1H-imidazolium L-prolinate]; 1152

INPUT: Output mass density of CCn1cc[n+](C)c1.NCC(=O)[O-] [1-ethyl-3-methylimidazolium ammonioacetate]
OUTPUT: 1151.6

INPUT: Recall and state the measured mass density for CC[n+]1ccn(C)c1.N[C@@H](CO)C(=O)[O-] [3-ethyl-1-methyl-1H-imidazolium L-serinate] .
OUTPUT: 1191.9

INPUT: Retrieve mass density measured for CCn1cc[n+](C)c1.C[C@H](N)C(=O)[O-] [1-ethyl-3-methylimidazolium L-alaninate] and print it.
OUTPUT: 1133

---

Details: 308.15 K; 101.33 kPa; Liquid; Concentric cylinders viscometry
EXPERIMENTAL_ENDPOINT: viscosity (mPa·s)
# unit: mPa·s | format: bare number

INPUT: Tell us which viscosity value is on record for CCn1cc[n+](C)c1.O=C([O-])[C@@H]1CCCN1 [1-ethyl-3-methyl-1H-imidazolium L-prolinate]
OUTPUT: 210.2

INPUT: For the molecule CC[n+]1ccn(C)c1.N[C@@H](CO)C(=O)[O-] [3-ethyl-1-methyl-1H-imidazolium L-serinate] , report viscosity.
OUTPUT: 196.7

INPUT: Output measured viscosity for this item: CCn1cc[n+](C)c1.C[C@H](N)C(=O)[O-] [1-ethyl-3-methylimidazolium L-alaninate]
OUTPUT: 93.87

INPUT: Specify measured viscosity for CCn1cc[n+](C)c1.NCC(=O)[O-] [1-ethyl-3-methylimidazolium ammonioacetate] .
OUTPUT: 37.79

---

Documented viscosity across a set of compounds
Settings: 333.15 K; 101.33 kPa; Liquid; Concentric cylinders viscometry
Express your answer in mPa·s, writing the number without its unit.

CCn1cc[n+](C)c1.O=C([O-])[C@@H]1CCCN1 [1-ethyl-3-methyl-1H-imidazolium L-prolinate]; 54.04

INPUT: Give recorded viscosity. CCn1cc[n+](C)c1.C[C@H](N)C(=O)[O-] [1-ethyl-3-methylimidazolium L-alaninate]
OUTPUT: 30.1

INPUT: Indicate its recorded viscosity; the compound in question is CCn1cc[n+](C)c1.NCC(=O)[O-] [1-ethyl-3-methylimidazolium ammonioacetate]
OUTPUT: 14.72

INPUT: Please indicate viscosity recorded for CC[n+]1ccn(C)c1.N[C@@H](CO)C(=O)[O-] [3-ethyl-1-methyl-1H-imidazolium L-serinate]
OUTPUT: 49.31

---

// refractive index lookup, one value per entry
Assay: refractive index (Na D-line) (dimensionless)
Conditions: 328.15 K; 101.33 kPa; Liquid; Standard Abbe refractometry
Give your answer as a number; write no unit.

INPUT: For the molecule CCn1cc[n+](C)c1.O=C([O-])[C@@H]1CCCN1 [1-ethyl-3-methyl-1H-imidazolium L-prolinate] , give its measured refractive index value.
OUTPUT: 1.50454

INPUT: Answer with reported refractive index of CCn1cc[n+](C)c1.NCC(=O)[O-] [1-ethyl-3-methylimidazolium ammonioacetate]
OUTPUT: 1.49488

INPUT: Consider the molecule CC[n+]1ccn(C)c1.N[C@@H](CO)C(=O)[O-] [3-ethyl-1-methyl-1H-imidazolium L-serinate] and give its recorded refractive index.
OUTPUT: 1.50224

INPUT: Consider the molecule CCn1cc[n+](C)c1.C[C@H](N)C(=O)[O-] [1-ethyl-3-methylimidazolium L-alaninate] . State its measured refractive index.
OUTPUT: 1.49395

---

Assay: refractive index (Na D-line) (dimensionless)
Details: 308.15 K; 101.33 kPa; Liquid; Standard Abbe refractometry
Numbers after ± are expanded uncertainties.
Recorded refractive index for the following compounds

Worked examples, 3 compounds total:
CC[n+]1ccn(C)c1.N[C@@H](CO)C(=O)[O-] [3-ethyl-1-methyl-1H-imidazolium L-serinate]; 1.50791 ± 0.00068
CCn1cc[n+](C)c1.C[C@H](N)C(=O)[O-] [1-ethyl-3-methylimidazolium L-alaninate]; 1.50072 ± 0.00068
CCn1cc[n+](C)c1.O=C([O-])[C@@H]1CCCN1 [1-ethyl-3-methyl-1H-imidazolium L-prolinate]; 1.51073 ± 0.00068

Please turn your attention to the following entry.
INPUT: Look up refractive index of CCn1cc[n+](C)c1.NCC(=O)[O-] [1-ethyl-3-methylimidazolium ammonioacetate] and report it.
OUTPUT: 1.50154 ± 0.00068

---

Assay: refractive index (Na D-line) (dimensionless)
Details: 333.15 K; 101.33 kPa; Liquid; Standard Abbe refractometry
EXPERIMENTAL_ENDPOINT: refractive index
Give the value as a plain number.

Worked examples, 3 compounds total:
CCn1cc[n+](C)c1.C[C@H](N)C(=O)[O-] [1-ethyl-3-methylimidazolium L-alaninate]; 1.49228
CCn1cc[n+](C)c1.O=C([O-])[C@@H]1CCCN1 [1-ethyl-3-methyl-1H-imidazolium L-prolinate]; 1.5031
CC[n+]1ccn(C)c1.N[C@@H](CO)C(=O)[O-] [3-ethyl-1-methyl-1H-imidazolium L-serinate]; 1.50083

INPUT: Please list refractive index recorded for the compound CCn1cc[n+](C)c1.NCC(=O)[O-] [1-ethyl-3-methylimidazolium ammonioacetate]
OUTPUT: 1.49321

---

Assay: refractive index (Na D-line) (dimensionless)
Details: 318.15 K; 101.33 kPa; Liquid; Standard Abbe refractometry
molecules and their reported refractive index
The response must contain the number and no unit.

These solved cases illustrate the format of a correct answer.
CC[n+]1ccn(C)c1.N[C@@H](CO)C(=O)[O-] [3-ethyl-1-methyl-1H-imidazolium L-serinate]; 1.50511
CCn1cc[n+](C)c1.C[C@H](N)C(=O)[O-] [1-ethyl-3-methylimidazolium L-alaninate]; 1.49735

INPUT: Annotate the molecule CCn1cc[n+](C)c1.O=C([O-])[C@@H]1CCCN1 [1-ethyl-3-methyl-1H-imidazolium L-prolinate] with its measured refractive index.
OUTPUT: 1.50774

INPUT: Return refractive index (reported value) for this molecule: CCn1cc[n+](C)c1.NCC(=O)[O-] [1-ethyl-3-methylimidazolium ammonioacetate]
OUTPUT: 1.49827
